assay: Solubility in water and oil; type: physicochemical; conditions: oil, oil or lipid; read-out: solubility in oil
Endpoint: solubility

Bench note: what solubility did CC(C)CN(C[C@@H](O)[C@H](Cc1ccccc1)NC(=O)[C@H](CC(N)=O)NC(=O)c1ccc2ccccc2n1)C(=O)NC(C)(C)C [Example 1] show?
< 1000 µg/mL

====

test: Bioavailability measured in animals; format: in vivo; settings: in vivo; normal formulation methods; read-out: bioavailability
Endpoint: bioavailability

Quick one: bioavailability for CC(C)CN(C[C@@H](O)[C@H](Cc1ccccc1)NC(=O)[C@H](CC(N)=O)NC(=O)c1ccc2ccccc2n1)C(=O)NC(C)(C)C [Example 1] ?
< 1%
